# Test system: 126254-015-R-J1-PDC complex spheroid growth, % test/control
# ASSAY_TEXT: Anticancer human tumor 126254-015-R-J1-PDC patient-derived soft tissue sarcoma cell line growth inhibition [Asc]
# CONDITION_DESCRIPTION: second compound 0.0949 µM; first compound 0.00316 µM; stronger effect = lower value
Checkbox rule: viability, T/C lower than 90% = t; viability, T/C not lower than 90% = f.

stdin: Dear colleague, could you confirm whether viability, T/C of COc1c(OCCCN2CCOCC2)ccc2c3n(c(=NC(=O)c4cnc(N)nc4)nc12)CCN3 + CCN1C(C(=O)NC23CCC(C(=O)O)(CC2)CC3)C(c2cccc(Cl)c2F)C2(C(=O)Nc3cc(Cl)ccc32)C12CCCCC2 falls below 90%? Thanks.
stdout: t

stdin: Dear colleague, could you confirm whether viability, T/C of CNC(C)C(=O)NC1CN(S(=O)(=O)c2cccc(S(=O)(=O)N3CCC4CCC(C(=O)NC(c5ccccc5)c5ccccc5)N4C(=O)C(NC(=O)C(C)NC)C3)c2)CCC2CCC(C(=O)NC(c3ccccc3)c3ccccc3)N2C1=O (stereo unspecified) + CCN1C(C(=O)NC23CCC(C(=O)O)(CC2)CC3)C(c2cccc(Cl)c2F)C2(C(=O)Nc3cc(Cl)ccc32)C12CCCCC2 falls below 90%? Thanks.
stdout: f

stdin: Dear colleague, could you confirm whether viability, T/C of NC1CCC(NC2CC2c2ccccc2)CC1 (stereo unspecified) + CCN1C(C(=O)NC23CCC(C(=O)O)(CC2)CC3)C(c2cccc(Cl)c2F)C2(C(=O)Nc3cc(Cl)ccc32)C12CCCCC2 falls below 90%? Thanks.
stdout: f

stdin: Dear colleague, could you confirm whether viability, T/C of O=C(c1ccc(F)c(F)c1Nc1ccc(I)cc1F)N1CC(O)([C@@H]2CCCCN2)C1 + CCN1C(C(=O)NC23CCC(C(=O)O)(CC2)CC3)C(c2cccc(Cl)c2F)C2(C(=O)Nc3cc(Cl)ccc32)C12CCCCC2 falls below 90%? Thanks.
stdout: f

---

# System: 126254-015-R-J1-PDC complex spheroid growth, % test/control
# ASSAY_TEXT: Anticancer human tumor 126254-015-R-J1-PDC cell line growth inhibition [Asc];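 also: spheroids exposed to compound for seven days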
# CONDITION_DESCRIPTION: curve of first compound; second compound 0.03 µM
pIC50: −log10 of the molar value.
OBSERVABLE: pIC50

stdin: I am curious: what pIC50 value has been reported for O=C(c1ccc(F)c(F)c1Nc1ccc(I)cc1F)N1CC(O)([C@@H]2CCCCN2)C1 + CCN1C(C(=O)NC23CCC(C(=O)O)(CC2)CC3)C(c2cccc(Cl)c2F)C2(C(=O)Nc3cc(Cl)ccc32)C12CCCCC2 ?
stdout: 6.26

stdin: I am curious: what pIC50 value has been reported for O=C(c1cc(Cc2n[nH]c(=O)c3ccccc23)ccc1F)N1CCN(C(=O)C2CC2)CC1 + CCN1C(C(=O)NC23CCC(C(=O)O)(CC2)CC3)C(c2cccc(Cl)c2F)C2(C(=O)Nc3cc(Cl)ccc32)C12CCCCC2 ?
stdout: < 5.00

stdin: I am curious: what pIC50 value has been reported for CCN1CCN(Cc2ccc(Nc3ncc(F)c(-c4cc(F)c5nc(C)n(C(C)C)c5c4)n3)nc2)CC1 + CCN1C(C(=O)NC23CCC(C(=O)O)(CC2)CC3)C(c2cccc(Cl)c2F)C2(C(=O)Nc3cc(Cl)ccc32)C12CCCCC2 ?
stdout: < 6.00
